target or system: panel of 255 wild-type kinases (Homo sapiens, UniProt P49841)
Sequence (P49841 whole entry): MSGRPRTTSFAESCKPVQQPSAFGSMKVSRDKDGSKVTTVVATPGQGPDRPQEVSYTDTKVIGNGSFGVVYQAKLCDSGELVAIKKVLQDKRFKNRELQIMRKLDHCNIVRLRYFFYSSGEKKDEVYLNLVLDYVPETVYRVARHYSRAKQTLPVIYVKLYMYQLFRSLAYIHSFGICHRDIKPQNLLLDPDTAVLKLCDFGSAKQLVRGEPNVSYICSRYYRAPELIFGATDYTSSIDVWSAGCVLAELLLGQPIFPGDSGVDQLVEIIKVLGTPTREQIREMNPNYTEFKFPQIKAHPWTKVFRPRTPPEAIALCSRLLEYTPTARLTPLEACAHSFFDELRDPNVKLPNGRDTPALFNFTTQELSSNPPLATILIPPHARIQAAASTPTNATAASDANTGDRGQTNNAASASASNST
assay explanation: Kinase panel profiling at 1 µmol/L (MSA or IMAP), percentage inhibition
Assay type: biochemical
experimental setup: kinase GSK3β; 1 µmol/L single concentration
Would you mind labelling by inhibition at 1 µM? At or over 40% is y, under is n.

# smiles entry, class
rows = [
    ("CCn1c(=O)c(-c2cc(NC(=O)Nc3ccccc3)c(F)cc2Br)cc2cnc(NC)cc21", "n"),
    ("CO[C@]1(C(=O)N[C@@H](C)c2ccc(-n3cc(F)cn3)nc2)CC[C@H](c2nc(C)cc(Nc3cc(C)[nH]n3)n2)CC1", "y"),
    ("CCc1nc(C(N)=O)c(Nc2ccc(N3CCC(N4CCN(C)CC4)CC3)c(OC)c2)nc1NC1CCOCC1", "n"),
    ("C[C@H](Nc1ncnc2nc[nH]c12)c1cc2cccc(Cl)c2c(=O)n1-c1ccccc1", "n"),
    ("Cn1cnc2c(F)c(Nc3ccc(Br)cc3Cl)c(C(=O)NOCCO)cc21", "n"),
]
